Test system: CASKI
Assay: Primary qHTS to identify gynecologic anti-cancer compounds using libraries of approved drugs and bioactive compounds (AID 1345084); note: nearly all actives have a fitted effect of over 55% in size
Conditions: Gynecologic cancer cell panel viability, ATPlite luminescence, 48 h; series mostly up to 57.5 µM
Results filed as inconclusive are left out. The source made the active and inactive calls. Calls come from the whole dose curve; as a rule, active = well fitted cell-killing curve with a large enough effect; inconclusive = small, poorly fitted or top-dose-only effect, or effect the other way; inactive = flat fitted curve, though single readings scatter.
Labels: active, inactive

>  <Molecule>
O=C(NNc1ccccc1)c1ccncc1

>  <Assigned class>
inactive

$$$$
>  <Molecule>
Cc1cc(CS(=O)(=O)c2ccccc2)cc(OCc2ccc(CN3CCC[C@@H]3CO)cc2)c1

>  <Assigned class>
inactive

$$$$
>  <Molecule>
C/C=C(/COC(=O)/C(C)=C/C)C(=O)OC/C=C/c1ccc(OC)cc1

>  <Assigned class>
inactive

$$$$
>  <Molecule>
Fc1ccccc1CNCc1ccc(-c2ccnc3[nH]ccc23)cc1

>  <Assigned class>
inactive

$$$$
>  <Molecule>
C=C1C(=O)O[C@@H]2[C@H]1[C@H](O)C[C@]1(C)[C@@H](O)CC=C(C)[C@@H]21

>  <Assigned class>
inactive

$$$$
>  <Molecule>
Cn1cnc(-c2nccc3c(=O)[nH]c(OCCCC(F)(F)F)nc23)c1

>  <Assigned class>
inactive

$$$$
>  <Molecule>
CO[C@@H]1[C@@H](O[C@H]2O[C@@H](C)[C@H](O[C@@H]3C[C@](C)(O)[C@H](O)[C@@H](C)O3)[C@@H](N(C)C)[C@@H]2O)[C@@H](CC=O)C[C@@H](C)[C@@H](O[C@H]2CC[C@H](N(C)C)[C@H](C)O2)/C=C/C=C/C[C@@H](C)OC(=O)C[C@H]1O

>  <Assigned class>
inactive

$$$$
>  <Molecule>
C=C1C(=O)O[C@@H]2/C=C(/C)CC3C=C(C[C@H](OC(=O)/C(C)=C\C)[C@@H]12)C(=O)O3 (stereo not given in full)

>  <Assigned class>
inactive

$$$$
>  <Molecule>
CC[C@H]1OC(=O)[C@H](C)[C@@H](O[C@H]2C[C@@](C)(OC)[C@@H](O)[C@H](C)O2)[C@H](C)[C@@H](O[C@@H]2O[C@H](C)C[C@H](N(C)C)[C@H]2O)[C@](C)(O)C[C@@H](C)/C(=N/OCOCCOC)[C@H](C)[C@@H](O)[C@]1(C)O

>  <Assigned class>
inactive

$$$$
>  <Molecule>
CC1CCN(c2cc(NC(=O)c3ccccc3)ncn2)CC1

>  <Assigned class>
inactive

$$$$
>  <Molecule>
O=C(c1ccc(F)c(F)c1Nc1ccc(I)cc1F)N1CC(O)(C2CCCCN2)C1 (stereo not given)

>  <Assigned class>
active

$$$$
>  <Molecule>
CC(C)[C@@H](C)/C=C/[C@@H](C)[C@H]1CC[C@H]2C3=CC=C4C[C@@H](O)CC[C@]4(C)C3=CC[C@]12C

>  <Assigned class>
inactive

$$$$
>  <Molecule>
CN[C@@H]1[C@@H](O)[C@@H](O[C@@H]2[C@@H](O)[C@H](O[C@H]3O[C@@H]([C@@H](C)NC)CC[C@H]3N)[C@@H](N)C[C@H]2N)OC[C@]1(C)O

>  <Assigned class>
inactive

$$$$
>  <Molecule>
COc1cccc(NC[C@@H](O)Cn2c3ccc(Br)cc3c3cc(Br)ccc32)c1

>  <Assigned class>
inactive

$$$$
>  <Molecule>
CCC(C)n1cc(C)c2c(C(=O)NCc3c(C)cc(C)[nH]c3=O)cc(-c3ccc(N4CCNCC4)nc3)cc21 (stereo not given)

>  <Assigned class>
inactive

$$$$
